# Target Or System: human ENT1 (Homo sapiens, UniProt Q99808)
# Construct: JAR cells expressing ENT1 were purchased from ATCC; host or cells: JAR cells
# Sequence (Q99808 whole entry): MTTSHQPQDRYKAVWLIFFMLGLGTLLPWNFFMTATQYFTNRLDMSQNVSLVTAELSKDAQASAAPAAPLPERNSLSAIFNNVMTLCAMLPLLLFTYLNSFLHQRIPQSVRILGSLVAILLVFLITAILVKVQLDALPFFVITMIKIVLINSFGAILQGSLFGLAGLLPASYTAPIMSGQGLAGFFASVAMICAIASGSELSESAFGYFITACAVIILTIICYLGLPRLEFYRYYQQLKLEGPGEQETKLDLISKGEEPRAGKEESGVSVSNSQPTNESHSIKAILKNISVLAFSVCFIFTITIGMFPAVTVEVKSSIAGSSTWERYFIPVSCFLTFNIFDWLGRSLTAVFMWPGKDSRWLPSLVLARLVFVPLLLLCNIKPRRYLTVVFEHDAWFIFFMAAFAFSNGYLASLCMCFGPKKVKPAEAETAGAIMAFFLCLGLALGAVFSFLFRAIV
# Assay Name: ENT1 binding assay (competition with Sahenta-DY647 on JAR cells)
# Reported Conditions: competition with SAHENTA-DY647 binding; IC50 categorized; read-out: Binding Assay IC50
pIC50: −log10 of the molar value.
Endpoint Label: pIC50

Example entries and their recorded answers appear below.
Lab book: pIC50 of C[C@H]1O[C@@H](n2c(NCc3cnn(C)c3)nc3c(OCc4ccc(C#N)cc4)ncnc32)[C@H](O)[C@@H]1O [Compound 65] noted as 7.70 to 9.00

Lab book: pIC50 of C[C@H]1O[C@@H](n2cnc3c(-c4cn(-c5ccc([N+](=O)[O-])cc5)nn4)ncnc32)[C@H](O)[C@@H]1O [Compound 368] noted as < 6.30

Pending compound:
Lab book: pIC50 of C[C@H]1O[C@@H](n2cnc3c(SCc4ccc(S(=O)(=O)N(C)C)cc4)ncnc32)[C@H](O)[C@@H]1O [Compound 366] noted as < 6.30

* * *

# Target Or System: human ENT1 (Homo sapiens, UniProt Q99808)
# Construct: JAR cells expressing ENT1 were purchased from ATCC; host or cells: JAR cells
# Assay Name: ENT1 binding assay (competition with Sahenta-DY647 on JAR cells)
# Reported Conditions: competition with SAHENTA-DY647 binding; IC50 categorized; read-out: Binding Assay IC50
pIC50: −log10 of the molar value.
Endpoint Label: pIC50

Lab book: pIC50 of "C[C@H]1O[C@@H](n2c(N[C@H]3CC[C@@H](O)CC3)nc3c(OCc4ccc([N+](=O)[O-])cc4)ncnc32)[C@H](O)[C@@H]1O" noted as > 9.00

Lab book: pIC50 of "C[C@H]1O[C@@H](n2cc(C(F)(F)F)c3c(SCc4ccc([N+](=O)[O-])cc4)ncnc32)[C@H](O)[C@@H]1O" noted as 6.30 to 7.70

Lab book: pIC50 of "C[C@H]1O[C@@H](n2cnc3c(SCc4ccc(C#N)cn4)ncnc32)[C@H](O)[C@@H]1O" noted as < 6.30

Please state pIC50 for every compound in the list that follows.
1. C[C@H]1O[C@@H](n2cnc3c(N(C)CCc4ccc([N+](=O)[O-])cc4)ncnc32)[C@H](O)[C@@H]1O
2. C[C@H]1O[C@@H](n2cnc3c(OCCc4ccc(Cl)cc4)ncnc32)[C@H](O)[C@@H]1O

Ans:
["< 6.30", "< 6.30"]
